Origin of values: PubChem BioAssay (NCI)

# Tested on: LOX IMVI melanoma
# Test Details: NCI-60 one-dose screen, 48 h (100 = growth as untreated, 0 = no growth, -100 = all killed)
# Details: 10 µM unless noted
This is part of a sample that, as a whole, favours compounds with a hit. Of some 83,000 tested, about 20% had one in any assay.
Quantity: growth (%)
Report as a plain number; the unit % is understood.

Provide measured growth value, entry: `COc1cc(O)c2c(c1)/C=C/C[C@H](O)[C@H](O)C(=O)/C=C\C[C@H](C)OC2=O` -42.7

Provide measured growth value, entry: `CC(=O)Nc1cccc(-n2cnc3cc(-c4ccc(O)cc4)ccc32)c1` 36.6

Provide measured growth value, entry: `COc1ccc(NC2=C(Cl)C(=O)C(C)=C(C)C2=O)cc1` 65.8

Provide measured growth value, entry: `COc1cc(/C=N/n2cnc3oc(-c4ccccc4)cc3c2=N)cc(CN2CCN(C)CC2)c1O` 79

Provide measured growth value, entry: `O=C(CCCCCCN1CC(=O)N2[C@@H](c3cccc(Cl)c3)c3[nH]c4ccccc4c3C[C@H]2C1=O)NO` -80.3

Provide measured growth value, entry: `Oc1ccc(CSc2nnc(-c3ccncc3)n2-c2ccccc2)c2cccnc12` 20.4

Provide measured growth value, entry: `COc1ccc2c(c1)c(-c1nnc(N)nc1-c1cn(C)c3ccccc13)cn2C` 90.8

Provide measured growth value, entry: `NC(=O)c1c(NC(=O)c2cccc(OC(F)(F)F)c2)sc2c1CCC(=O)C2` 28.5

Provide measured growth value, entry: Cc1ccccc1NC1CC(=O)N(c2ccc(Cl)cc2Cl)C1=O (stereo not given) 94.4

Provide measured growth value, entry: `COc1cc(/C=C/C(=O)c2ccc(NC(=O)CSc3nnc(-c4ccc5nc(-c6ccccc6)[nH]c5c4)o3)cc2)cc(OC)c1OC` 56

Provide measured growth value, entry: `Cc1cc(=O)n2nc(-c3c[nH]c4ccccc34)sc2n1` 95.7

Provide measured growth value, entry: CCOC(=O)/C(F)=C/C1CC1CCc1cccc(C(F)(F)F)c1 (stereo not given) 102

Provide measured growth value, entry: `CS(=O)(=O)c1nccc(-c2c(-c3ccc(F)c(OCc4ccc(F)cc4)c3)nc3sccn23)n1` 19.9

Provide measured growth value, entry: `COc1cc(NC2=C(Cl)C(=O)c3nc(C)ccc3C2=O)cc(OC)c1` -82.6

Provide measured growth value, entry: `CCN(CC)Cc1c(-c2cccc(OC(F)(F)F)c2)[nH]c2ccc(N3CCCC3)cc2c1=O` 90.9

Provide measured growth value, entry: `CC(=O)C1=NN(c2ccc(Cl)cc2)C(=O)CN1C` 98.3

Provide measured growth value, entry: CCCC(=O)NC(c1cccnc1)c1cc(Cl)c2cccnc2c1O (stereo not given) 32.7

Provide measured growth value, entry: `COc1ccc(C(=O)n2cc(C=O)c3ccccc32)cc1` 76.2

Provide measured growth value, entry: `COC(=O)[C@@]1(C)CC[C@]2(C)CC[C@]3(C)C(=CC(=O)[C@@H]4[C@@]5(C)Cc6c(n(CC#CCN7CCN(C)CC7)c7ccccc67)C(C)(C)[C@@H]5CC[C@]43C)[C@@H]2C1` -91.6

Provide measured growth value, entry: `Cc1nc(-c2cc3ccccc3c(N3CCN(C)CC3)n2)cs1` 84.7
